From various publications: IC50 for MAGL (Homo sapiens, UniProt Q99685).
Quick reminder: number only, in nM, skip the unit.

Recorded IC50, per entry:
Lab note: molecule O=C(c1ccc2c(c1)[nH]c(=O)n2CC(F)(F)F)N1CC(N2CCN(C(=O)c3cscn3)CC2)C1 tested on MAGL (Homo sapiens, UniProt Q99685); recorded IC50 was 10400

Lab note: molecule O=C1CO[C@H]2CCN(C(=O)N3CC(c4noc(-c5ccc(Cl)cc5Cl)n4)C3)C[C@H]2N1 tested on MAGL (Homo sapiens, UniProt Q99685); recorded IC50 was 39.2

Lab note: molecule O=C(CCCc1cnn[nH]1)N1CC(C#Cc2cccc(Cl)c2)C1 tested on MAGL (Homo sapiens, UniProt Q99685); recorded IC50 was 61

Lab note: molecule O=C(c1ccc(-c2cccc(C(F)(F)F)c2)cc1)N1CC(N2CCN(C(=O)C3CC3)CC2)C1 tested on MAGL (Homo sapiens, UniProt Q99685); recorded IC50 was 6

Lab note: molecule O=C(c1ccc2c(-c3ccc(F)cc3)c[nH]c2c1)N1CC(N[C@H]2CCN(C(=O)c3nccs3)C2)C1 tested on MAGL (Homo sapiens, UniProt Q99685); recorded IC50 was 12.5

Now look at this entry.
Lab note: molecule CC(C)(C)Cn1ncc(-c2ncc(C(=O)N3CCN(c4nc5nc(Cl)ccc5o4)CC3)cc2F)n1 tested on MAGL (Homo sapiens, UniProt Q99685); recorded IC50 was 25
